experiment notes: Ocular tissue concentrations (aqueous humor, vitreous humor, iris, retina, choroid, cornea) after topical ocular, subcutaneous and intravitreal administration
Type: in vivo, New Zealand White rabbits
condition: New Zealand White, rabbit, cornea, other: intravitreal, 2.5 mg/eye, Cornea, 48 hr, OD; sodium salt, intravitreal 2.5 mg/eye, Group 4; read-out: Cornea Conc. (ng/g) OD
measured metric: concentration at 48 hr (ng/g)

COC(=O)N[C@@H](Cc1ccccc1)C(=O)N[C@@H](Cc1ccc(NS(=O)(=O)O)cc1)c1csc(-c2cccs2)n1 ... 11600

* * *

experiment notes: Ocular tissue concentrations (aqueous humor, vitreous humor, iris, retina, choroid, cornea) after topical ocular, subcutaneous and intravitreal administration
Type: in vivo, New Zealand White rabbits
condition: New Zealand White, rabbit, iris, other: intravitreal, 2.5 mg/eye, Iris, 24 hr, left eye, intravitreal 2.5 mg/eye (group 5), individual animals; read-out: Conc. (ng/g) OS
Method: To measure the concentration of Compound 1 in plasma and ocular tissues following topical ocular, subcutaneous, and intravitreal administration, New Zealand White rabbits were administered Compound 1, and plasma and ocular samples were collected at pre-determined time points. […] Ocular tissue samples from both eyes of each animal were collected and weights were recorded. Plasma and ocular tissue sample concentrations of Compound 1 were determined by LC-MS/MS. […]
measured metric: concentration at 24 h (ng/g)

COC(=O)N[C@@H](Cc1ccccc1)C(=O)N[C@@H](Cc1ccc(NS(=O)(=O)O)cc1)c1csc(-c2cccs2)n1 [Compound 1] ... 155000
